EXPERIMENT NOTES: Volume of distribution in rhesus monkey at […], iv or 1 mg/kg, po
Format: ADME, organism-based, Macaca mulatta
CONDITION DETAILS: in vivo
PARAMETER MEASURED: Vd (L/kg)
Supply the numeric figure in L/kg, leaving out any unit text.

Vd for `CCOc1cc(CN2CCC3(CC2)CC(=O)N(c2ccc(C(=O)O)cc2)C3)cc(OCC)c1-c1ccc(F)cc1.O=C(O)C(F)(F)F` is 1.39

* * *

Test system: Mus musculus
EXPERIMENT NOTES: Drug uptake in mouse whole blood at 30 mg/kg, po measured at […]
PARAMETER MEASURED: concentration at […] (nM)
Field: numeric (nM). Do not append units.

Before answering, review these 2 worked examples.
| COMPOUND | UNITS LABEL | concentration at […] |
| --- | --- | --- |
| CCOc1cc(CN2CC[C@H]3C(Nc4nc5ccc(C(=O)O)cc5o4)CC[C@H]32)cc(OCC)c1-c1ccc(F)cc1 (relative stereo) | nM | 760 |
| CCOc1cc(CN2CCC(C3CCN(S(=O)(=O)c4ccccc4)CC3)CC2)cc(OCC)c1-c1ccc(F)cc1 | nM | 92 |

API: the following record is the query input.
The compound listed as `CCOc1cc(CN2CCC3(CC2)NC(=O)NC3=O)cc(OCC)c1-c1ccc(F)cc1` has a reported concentration at […] of 460

Every entry's value here was drawn from ChEMBL document CHEMBL4266056.
